// values below are reported efflux ratio at 2.5 h, 2 μM
Test system: P-glycoprotein (MDR1)
assay_details: MDR1-MDCK cell bi-directional permeability
Format: in vitro ADME
experimental_setup: dog, HBSS pH 7.4, read-out: MDR1-MDCK Monolayer Cell Bi-directional Permeability Parameters Efflux Ratio
Could you keep your reply to the number by itself?

{"compound": "C[C@]1(CN2CCc3nc(-c4ccc(F)cc4)ccc3C2)Cn2cc([N+](=O)[O-])nc2O1 [Compound 7]", "measure": "efflux ratio at 2.5 h, 2 μM", "readout_number": 1.09}
{"compound": "C[C@]1(CN2Cc3nc(-c4ccc(F)cc4)oc3C2)Cn2cc([N+](=O)[O-])nc2O1 [Compound 89]", "measure": "efflux ratio at 2.5 h, 2 μM", "readout_number": 0.71}
{"compound": "C[C@]1(CN2Cc3nc(-c4ccc(F)cc4)sc3C2)Cn2cc([N+](=O)[O-])nc2O1 [Compound 69]", "measure": "efflux ratio at 2.5 h, 2 μM", "readout_number": 0.76}

Alright, here's another compound for you.
Request: Return reported efflux ratio at 2.5 h, 2 μM. Input compound: CC1(CN2CCc3nc(-c4ccccc4)ccc3C2)Cn2cc([N+](=O)[O-])nc2O1 (single isomer, unassigned) [Compound 1B]
Response: 1.35

====

// values below are reported Cmax
assay_details: Pharmacokinetics in vivo in mice
experimental_setup: mouse; CD-1 male mice, oral, plasma
Express the result in nM but write the number alone.

{"molecule": "C[C@]1(CN2CCc3nc(-c4ccc(F)cc4)ccc3C2)Cn2cc([N+](=O)[O-])nc2O1 [Compound 7]", "units_of_measure": "nM", "Cmax": 6720}

Alright, here's another molecule for you.
Request: Return reported Cmax. Input molecule: C[C@]1(COc2ccc(N3CCC(Oc4ccc(OC(F)(F)F)cc4)CC3)cc2)Cn2cc([N+](=O)[O-])nc2O1 [OPC-67683, delamanid, reference compound]
Response: 4740

====

assay_details: Kinetic solubility test
Type: physicochemical
experimental_setup: buffer, 22 °C, aqueous buffer, kinetic from dmso stock, pH 2.0, room temperature
// values below are reported solubility kinetic at 24 h
Express the result in µM but write the number alone.

Some solved entries appear below for comparison.
{"molecule": "C[C@]1(CN2Cc3nc(-c4ccc(F)cc4)sc3C2)Cn2cc([N+](=O)[O-])nc2O1 [Compound 69]", "units_of_measure": "µM", "readout_number": 39.3}
{"molecule": "C[C@]1(CN2CCc3nc(-c4ccc(F)cc4)ccc3C2)Cn2cc([N+](=O)[O-])nc2O1 [Compound 7]", "units_of_measure": "µM", "readout_number": 143}
{"molecule": "CC1(CN2CCc3nc(-c4ccccc4)ccc3C2)Cn2cc([N+](=O)[O-])nc2O1 (single isomer, unassigned) [Compound 1B]", "units_of_measure": "µM", "readout_number": 130}

Alright, here's another molecule for you.
Request: Return reported solubility kinetic at 24 h. Input molecule: C[C@]1(CN2Cc3nc(-c4ccc(F)cc4)oc3C2)Cn2cc([N+](=O)[O-])nc2O1 [Compound 89]
Response: 100

====

System: M. tuberculosis H37R
assay_details: M. tuberculosis LORA MIC
Assay type: cell-based
experimental_setup: Mycobacterium tuberculosis, read-out: M. tuberculosis H37R LORA (MIC) (ug/mL)
// values below are reported MIC

Some solved entries appear below for comparison.
{"smiles_record": "C[C@]1(CN2CCc3nc(-c4ccco4)ccc3C2)Cn2cc([N+](=O)[O-])nc2O1", "measure": "MIC", "result": "1 to 32 µg/mL"}
{"smiles_record": "C[C@]1(CN2CCc3nc(-c4cccc(F)c4)ccc3C2)Cn2cc([N+](=O)[O-])nc2O1", "measure": "MIC", "result": "1 to 32 µg/mL"}
{"smiles_record": "C[C@]1(CN2Cc3nc(-c4ccc(F)cc4)sc3C2)Cn2cc([N+](=O)[O-])nc2O1", "measure": "MIC", "result": "1 to 32 µg/mL"}

Request: Return reported MIC. Input compound: C[C@]1(CN2CCc3nc(-c4ccc(F)cc4)oc3C2)Cn2cc([N+](=O)[O-])nc2O1
Response: 1 to 32 µg/mL

Request: Return reported MIC. Input compound: C[C@]1(CN2CCc3nc(-c4ccc(Cl)c(F)c4)ccc3C2)Cn2cc([N+](=O)[O-])nc2O1
Response: 1 to 32 µg/mL

====

// values below are reported MIC
System: M. tuberculosis H37R
assay_details: M. tuberculosis LORA MIC
Format: cell-based
experimental_setup: Mycobacterium tuberculosis, read-out: M. tuberculosis H37R LORA (MIC) (ug/mL)

Request: Return reported MIC. Input compound: CC1(CN2CCc3nc(-c4ccccc4)ccc3C2)Cn2cc([N+](=O)[O-])nc2O1 (single isomer, unassigned)
Response: 1 to 32 µg/mL

Request: Return reported MIC. Input compound: C[C@]1(CN2CCc3nc(-c4ccc(F)cc4)ccc3C2)Cn2cc([N+](=O)[O-])nc2O1
Response: 1 to 32 µg/mL

Request: Return reported MIC. Input compound: C[C@]1(CN2CCc3nc(-c4cc(F)cc(F)c4)ccc3C2)Cn2cc([N+](=O)[O-])nc2O1
Response: 1 to 32 µg/mL

====

// values below are reported MIC
System: Mycobacterium bovis BCG strain TMC1019 (ATCC35737)
assay_details: microbe, parasite or virus in culture
Format: cell-based
experimental_setup: Mycobacterium tuberculosis variant bovis BCG, 24 h, read-out: M. bovis ATCC35737 (ug/mL)

Some solved entries appear below for comparison.
{"smiles_record": "C[C@]1(CN2CCc3nc(-c4ccc(Cl)c(F)c4)ccc3C2)Cn2cc([N+](=O)[O-])nc2O1", "MIC": "< 1 µg/mL"}
{"smiles_record": "C[C@]1(CN2CCc3sc(-c4ccc(F)cc4)nc3C2)Cn2cc([N+](=O)[O-])nc2O1", "MIC": "< 1 µg/mL"}

Request: Return reported MIC. Input molecule: C[C@]1(CN2CCc3nc(C4CC4)ccc3C2)Cn2cc([N+](=O)[O-])nc2O1
Response: < 1 µg/mL

Request: Return reported MIC. Input molecule: C[C@]1(CN2Cc3nc(-c4ccc(OC(F)(F)F)cc4)sc3C2)Cn2cc([N+](=O)[O-])nc2O1
Response: 1 to 32 µg/mL

====

// values below are reported Papp B→A at 2.5 h, 2 μM
Test system: P-glycoprotein (MDR1)
assay_details: MDR1-MDCK cell bi-directional permeability
Type: in vitro ADME
experimental_setup: dog, B to A, HBSS pH 7.4, read-out: MDR1-MDCK Monolayer Cell Bi-directional Permeability Parameters B to A
Express the result in ×10⁻⁶ cm/s but write the number alone.

{"compound": "C[C@]1(COc2ccc(N3CCC(Oc4ccc(OC(F)(F)F)cc4)CC3)cc2)Cn2cc([N+](=O)[O-])nc2O1 [OPC-67683, delamanid, reference compound]", "measure": "Papp B→A at 2.5 h, 2 μM", "units_of_measure": "×10⁻⁶ cm/s", "readout_number": 0.17}

Request: Enter measured Papp B→A at 2.5 h, 2 μM, system P-glycoprotein (MDR1), for the compound shown: C[C@]1(CN2Cc3nc(-c4ccc(F)cc4)sc3C2)Cn2cc([N+](=O)[O-])nc2O1
Response: 15.8

Request: Enter measured Papp B→A at 2.5 h, 2 μM, system P-glycoprotein (MDR1), for the compound shown: CC1(CN2CCc3nc(-c4ccccc4)ccc3C2)Cn2cc([N+](=O)[O-])nc2O1 (single isomer, unassigned)
Response: 22.7

Request: Enter measured Papp B→A at 2.5 h, 2 μM, system P-glycoprotein (MDR1), for the compound shown: C[C@]1(CN2CCc3nc(-c4ccc(F)cc4)ccc3C2)Cn2cc([N+](=O)[O-])nc2O1
Response: 19.3

Request: Enter measured Papp B→A at 2.5 h, 2 μM, system P-glycoprotein (MDR1), for the compound shown: C[C@]1(CN2Cc3nc(-c4ccc(F)cc4)oc3C2)Cn2cc([N+](=O)[O-])nc2O1
Response: 18.5

Source: patent US10227362B2
